Data provenance: ChEMBL document CHEMBL2040838

# Assayed system: UniProtKB B4URF0
# Sequence (B4URF0 whole entry): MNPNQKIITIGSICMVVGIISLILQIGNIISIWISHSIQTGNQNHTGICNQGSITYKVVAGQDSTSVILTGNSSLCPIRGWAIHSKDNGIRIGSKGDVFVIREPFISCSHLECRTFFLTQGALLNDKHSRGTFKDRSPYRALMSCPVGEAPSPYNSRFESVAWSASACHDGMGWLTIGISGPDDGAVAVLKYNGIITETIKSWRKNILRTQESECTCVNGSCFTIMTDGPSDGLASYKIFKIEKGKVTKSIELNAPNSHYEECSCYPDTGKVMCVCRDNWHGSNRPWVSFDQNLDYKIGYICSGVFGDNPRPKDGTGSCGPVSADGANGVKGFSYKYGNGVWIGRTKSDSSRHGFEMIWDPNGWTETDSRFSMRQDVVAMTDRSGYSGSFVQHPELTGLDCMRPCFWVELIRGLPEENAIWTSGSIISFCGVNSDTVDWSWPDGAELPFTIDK
# Assay info: Inhibition of Influenza A virus (A/Sydney/5/97(H3N2)) recombinant neuraminidase using 2'-(4- methylumbelliferyl)-alpha-D-N-acetylneuraminic acid as substrate after 1 hr by fluorescence assay
# Parameters: species or system Influenza A virus (A/Sydney/5/1997(H3N2))
Items are presented alongside their recorded IC50.
State the answer as a number, implicitly in µM.

CC(=O)N[C@H]1[C@H]([C@H](O)[C@H](O)CO)OC(C(=O)O)=C[C@@H]1NC(=O)NCc1ccco1    6.6
CC(=O)N[C@H]1[C@H]([C@H](O)[C@H](O)CO)OC(C(=O)O)=C[C@@H]1NC(=O)N[C@H](CC(N)=O)C(=O)O    22.3
CC(=O)N[C@H]1[C@H]([C@H](O)[C@H](O)CO)OC(C(=O)O)=C[C@@H]1NC(=O)N[C@H](C(=O)O)[C@@H](C)O    488

# `CC(=O)N[C@H]1[C@H]([C@H](O)[C@H](O)CO)OC(C(=O)O)=C[C@@H]1NC(=S)NC1CC1` with UniProtKB B4URF0: IC50 is 550

# `CC(=O)N[C@H]1[C@H]([C@H](O)[C@H](O)CO)OC(C(=O)O)=C[C@@H]1NC(=S)NCCCl` with UniProtKB B4URF0: IC50 is 100

# `CC(=O)N[C@H]1[C@H]([C@H](O)[C@H](O)CO)OC(C(=O)O)=C[C@@H]1NC(=O)NCc1ccccc1` with UniProtKB B4URF0: IC50 is 705
